# SUBJECT OF TEST: Broad substrate specificity ATP-binding cassette transporter ABCG2 (Homo sapiens, UniProt Q9UNQ0)
# Sequence (Q9UNQ0 whole entry): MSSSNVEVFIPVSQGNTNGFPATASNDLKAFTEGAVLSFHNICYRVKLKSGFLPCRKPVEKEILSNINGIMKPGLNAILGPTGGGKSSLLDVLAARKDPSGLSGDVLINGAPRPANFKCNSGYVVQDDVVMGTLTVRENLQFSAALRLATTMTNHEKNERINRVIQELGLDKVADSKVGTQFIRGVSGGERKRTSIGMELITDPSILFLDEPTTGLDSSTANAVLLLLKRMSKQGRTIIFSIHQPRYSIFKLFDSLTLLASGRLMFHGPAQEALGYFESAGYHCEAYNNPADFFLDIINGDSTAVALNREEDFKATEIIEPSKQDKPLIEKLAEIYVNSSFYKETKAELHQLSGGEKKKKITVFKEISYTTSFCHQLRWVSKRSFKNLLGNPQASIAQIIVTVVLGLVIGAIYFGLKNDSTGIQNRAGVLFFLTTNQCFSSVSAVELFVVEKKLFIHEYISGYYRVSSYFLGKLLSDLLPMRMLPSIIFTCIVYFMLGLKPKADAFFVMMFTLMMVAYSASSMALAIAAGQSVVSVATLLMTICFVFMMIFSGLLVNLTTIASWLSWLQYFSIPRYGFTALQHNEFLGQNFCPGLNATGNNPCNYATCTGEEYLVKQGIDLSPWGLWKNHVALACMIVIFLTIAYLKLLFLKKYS
# PROTOCOL: Inhibition of human ABCG2 expressed in Sf9 cell membranes assessed as reduction in [125I]-IAAP binding incubated for 20 mins under UV light irradiation and measured after 30 mins by densitometry based photo-affinity labeling assay
ENDPOINT NAME: IC50 (µM)
Provide only the numeric value, understood in µM.

[in] Using the record for Cc1cn([C@H]2C[C@H](N=[N+]=[N-])[C@@H](COC(=O)CCCCCCCCCCC(=O)OC[C@H]3O[C@@H](n4cc(C)c(=O)[nH]c4=O)C[C@@H]3N=[N+]=[N-])O2)c(=O)[nH]c1=O , report its IC50.
[out] 4.3
